Target: Gag-Pol polyprotein [588-1027]/[588-1147] (Human immunodeficiency virus 1, UniProt P04585)
ASSAY_METRIC: IC50 (nM)
Hi! Could you send only the number? It should be in nM, unit omitted.

stdin: Which measured IC50 value corresponds to CCC(C)Sc1nc(O)cc(Cc2c(Cl)cccc2Cl)n1 (stereo unspecified) ?
stdout: 100

Reference source for all entries: BindingDB's records for doi:10.1021/jm980260f
